Parameter: Plant response rating, Foxtail, Giant. Scope: all listed entries.
System: foxtail, giant (Setaria faberii)
Assay: Test A postemergence, giant foxtail
Format: in vivo
Details: 500 g ai/ha, visual injury, 0 to 100 scale (0 no effect, 100 complete control), approximately 10 days
API note: the answer field is a bare number with no unit suffix.

> print(dat)
                                   molecule  reported
1  CN1CC(c2cccc(Sc3ccccc3)c2)C(C(=O)Nc2cccc(F)c2F)C1=O (single isomer, unassigned)        40
2  O=C1NCC(c2cccc(Cn3ccc(C(F)(F)F)n3)c2)C1C(=O)Nc1ccc(F)c(F)c1F (centres unmarked)        60
3  O=C1NCC(c2cccc(Cn3cccn3)c2)C1C(=O)Nc1ccc(F)c(F)c1F (centres unmarked)        60

Prompt line: Looking for the measured Plant response rating, Foxtail, Giant of O=C1NCC(c2cccc(Oc3ccccn3)c2)C1C(=O)Nc1cccc(F)c1F (centres unmarked) , can you help?
Response line: 60

Prompt line: Looking for the measured Plant response rating, Foxtail, Giant of O=C1NCC(c2cccc(OCc3ccco3)c2)C1C(=O)Nc1ccccc1C(F)(F)F (centres unmarked) , can you help?
Response line: 10

Prompt line: Looking for the measured Plant response rating, Foxtail, Giant of O=C1NCC(c2cccc(Cn3ccc(C(F)(F)F)n3)c2)C1C(=O)Nc1ccccc1F (centres unmarked) , can you help?
Response line: 20

Prompt line: Looking for the measured Plant response rating, Foxtail, Giant of O=C1NCC(c2ccccc2Cn2ccc(C(F)(F)F)n2)C1C(=O)Nc1ccccc1F (centres unmarked) , can you help?
Response line: 20

Prompt line: Looking for the measured Plant response rating, Foxtail, Giant of O=C1NCC(c2cccc(OCC3CC3)c2)C1C(=O)Nc1ccccc1F (centres unmarked) , can you help?
Response line: 90

###

Test system: foxtail, giant (Setaria faberii)
Assay: Test A preemergence, giant foxtail
Assay type: in vivo
Settings: 500 g ai/ha, 0 to 100 scale (0 no effect, 100 complete control)
outcome.measure: Plant response rating, Foxtail, Giant
API note: the answer field is a bare number with no unit suffix.

> print(dat)
                                   compound                         tested.on                        outcome.measure  reported
1  O=C1NCC(c2cccc(Cn3cccn3)c2)C1C(=O)Nc1ccc(F)cc1F (centres unmarked)  foxtail, giant (Setaria faberii)  Plant response rating, Foxtail, Giant        30
2  O=C1NCC(c2cccc(OCc3ccco3)c2)C1C(=O)Nc1ccccc1F (centres unmarked)  foxtail, giant (Setaria faberii)  Plant response rating, Foxtail, Giant         0
3  O=C1NCC(c2cccc(Oc3ccc(F)cn3)c2)C1C(=O)Nc1ccccc1F (single isomer, unassigned)  foxtail, giant (Setaria faberii)  Plant response rating, Foxtail, Giant        90

Prompt line: Looking for the measured Plant response rating, Foxtail, Giant of O=C1NCC(c2cccc(Cn3ccc(C(F)(F)F)n3)c2)C1C(=O)Nc1ccccc1F (centres unmarked) , can you help?
Response line: 50

Prompt line: Looking for the measured Plant response rating, Foxtail, Giant of O=C1NCC(c2cccc(Cn3cccn3)c2)C1C(=O)Nc1cccc(F)c1F (centres unmarked) , can you help?
Response line: 90

Prompt line: Looking for the measured Plant response rating, Foxtail, Giant of CC1(COc2cccc(C3CNC(=O)C3C(=O)Nc3ccccc3Cl)c2)COC1 (centres unmarked) , can you help?
Response line: 70

Prompt line: Looking for the measured Plant response rating, Foxtail, Giant of O=C1NCC(c2cccc(Oc3ccc(F)cn3)c2)C1C(=O)Nc1cccc(F)c1F (single isomer, unassigned) , can you help?
Response line: 90

Prompt line: Looking for the measured Plant response rating, Foxtail, Giant of O=C1NCC(c2cccc(Oc3ccccn3)c2)C1C(=O)Nc1cccc(F)c1F (centres unmarked) , can you help?
Response line: 90

###

Test system: kochia (Kochia scoparia)
Experiment: Test A preemergence, kochia
Format: in vivo
Conditions: 125 g ai/ha, 0 to 100 scale (0 no effect, 100 complete control)
Parameter: Plant response rating, Kochia. Scope: all listed entries.

Solved entries:
> print(dat)
                                   compound                 tested.on                outcome.measure  reported
1  O=C1NCC(c2cccc(Cn3cccn3)c2)C1C(=O)Nc1ccccc1F (stereo not shown) [Compound 27]  kochia (Kochia scoparia)  Plant response rating, Kochia         0
2  O=C1NCC(c2cccc(OCC3CC3)c2)C1C(=O)Nc1ccccc1Cl (stereo not shown) [Compound 4]  kochia (Kochia scoparia)  Plant response rating, Kochia         0
3  O=C1NCC(c2cccc(COc3ccccc3)c2)C1C(=O)Nc1ccccc1F (stereo not shown) [Compound 19]  kochia (Kochia scoparia)  Plant response rating, Kochia         0
4  CN1CC(c2cccc(Oc3ccc(F)cc3)c2)C(C(=O)Nc2ccccc2F)C1=O (single isomer, unassigned) [Compound 45]  kochia (Kochia scoparia)  Plant response rating, Kochia         0
5  O=C1NCC(c2cccc(Oc3ccccn3)c2)C1C(=O)Nc1ccc(F)c(F)c1F (stereo not shown) [Compound 42]  kochia (Kochia scoparia)  Plant response rating, Kochia         0

Prompt line: Form field: Plant response rating, Kochia recorded for CN1CC(c2cccc(OC(F)(F)C(F)OC(F)(F)F)c2)C(C(=O)Nc2cccc(F)c2F)C1=O (stereo not shown) [Compound 48] with kochia (Kochia scoparia) (enter value)
Response line: 0

Prompt line: Form field: Plant response rating, Kochia recorded for O=C1NCC(c2cccc(Oc3ncc(F)cc3F)c2)C1C(=O)Nc1cccc(F)c1F (single isomer, unassigned) [Compound 71] with kochia (Kochia scoparia) (enter value)
Response line: 30

###

Test system: corn (Zea mays)
Experiment: Test A postemergence, corn
Type: in vivo
Details: 125 g ai/ha, visual injury, 0 to 100 scale (0 no effect, 100 complete control), approximately 10 days
Parameter: Plant response rating, Corn. Scope: all listed entries.
API note: the answer field is a bare number with no unit suffix.

Solved entries:
> print(dat)
                                   compound  reported
1  CN1CC(c2cccc(Oc3ncc(F)cc3F)c2)C(C(=O)Nc2ccc(F)c(F)c2F)C1=O (single isomer, unassigned)        20
2  C[Si](C)(C)C#Cc1cccc(C2CNC(=O)C2C(=O)Nc2cccc(F)c2F)c1 (stereo not drawn)         0
3  CN1CC(c2cccc(Sc3ccccc3)c2)C(C(=O)Nc2ccccc2F)C1=O (single isomer, unassigned)         0
4  CN1C[C@H](c2cccc(Oc3ccc(F)cn3)c2)[C@@H](C(=O)Nc2ccc(F)c(F)c2F)C1=O        90

Prompt line: Looking for the measured Plant response rating, Corn of CN1CC(c2cccc(Oc3ncc(F)cn3)c2)C(C(=O)Nc2ccccc2F)C1=O (single isomer, unassigned) , can you help?
Response line: 40

Prompt line: Looking for the measured Plant response rating, Corn of O=C1NCC(c2cccc(Oc3ncc(F)cn3)c2)C1C(=O)Nc1ccccc1F (single isomer, unassigned) , can you help?
Response line: 30

Prompt line: Looking for the measured Plant response rating, Corn of O=C1NCC(c2cccc(OCc3ccco3)c2)C1C(=O)Nc1ccccc1Cl (stereo not drawn) , can you help?
Response line: 0

###

System: kochia (Kochia scoparia)
Test: Test A preemergence, kochia
Format: in vivo
Details: 125 g ai/ha, 0 to 100 scale (0 no effect, 100 complete control)
Parameter: Plant response rating, Kochia. Scope: all listed entries.
API note: the answer field is a bare number with no unit suffix.

Solved entries:
> print(dat)
                                   compound                 tested.on  reported
1  O=C1NCC(c2cccc(COc3ccccc3)c2)C1C(=O)Nc1ccccc1Cl (centres unmarked) [Compound 18]  kochia (Kochia scoparia)         0
2  O=C1NCC(c2cccc(OCC3OCCO3)c2)C1C(=O)Nc1ccccc1C(F)(F)F (centres unmarked) [Compound 5]  kochia (Kochia scoparia)         0
3  O=C1NCC(c2cccc(OCC3CC3)c2)C1C(=O)Nc1ccc(F)cc1F (centres unmarked) [Compound 3]  kochia (Kochia scoparia)         0
4  O=C1NCC(c2cccc(OCc3ccccc3)c2)C1C(=O)Nc1cccc(F)c1F (centres unmarked) [Compound 65]  kochia (Kochia scoparia)         0
5  CC1(COc2cccc(C3CNC(=O)C3C(=O)Nc3cccc(F)c3F)c2)COC1 (centres unmarked) [Compound 13]  kochia (Kochia scoparia)         0

Prompt line: Looking for the measured Plant response rating, Kochia of CN1CC(c2cccc(Oc3ncc(F)cc3F)c2)C(C(=O)Nc2cccc(F)c2F)C1=O (single isomer, unassigned) [Compound 73] , can you help?
Response line: 20

Prompt line: Looking for the measured Plant response rating, Kochia of O=C1NCC(c2cccc(Oc3ncc(Cl)cn3)c2)C1C(=O)Nc1ccccc1F (centres unmarked) [Compound 55] , can you help?
Response line: 0

Prompt line: Looking for the measured Plant response rating, Kochia of O=C1NCC(c2cccc(Oc3ccc(F)cn3)c2)C1C(=O)Nc1cccc(F)c1F (single isomer, unassigned) [Compound 52] , can you help?
Response line: 70
